A collection of binders and their measured pKd
Biological target: T1, hRGMa-His (human, UniProt Q96B86 48-422, limits assumed)
T1 construct: also called human RGMa (BIAcore); not shown: His tag
T1 sequence: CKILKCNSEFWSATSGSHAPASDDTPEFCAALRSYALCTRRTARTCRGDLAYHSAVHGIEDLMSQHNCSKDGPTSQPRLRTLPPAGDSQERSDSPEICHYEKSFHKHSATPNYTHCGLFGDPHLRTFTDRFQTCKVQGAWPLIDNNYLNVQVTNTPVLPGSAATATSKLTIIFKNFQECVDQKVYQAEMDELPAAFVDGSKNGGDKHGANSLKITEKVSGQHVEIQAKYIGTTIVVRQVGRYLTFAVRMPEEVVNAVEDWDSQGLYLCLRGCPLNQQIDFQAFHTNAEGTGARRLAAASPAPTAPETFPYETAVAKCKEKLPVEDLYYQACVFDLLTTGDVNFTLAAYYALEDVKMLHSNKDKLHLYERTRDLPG
Experiment: BIAcore
Value format note: pKd is -log10 of concentration (mol/L); just state the number.

Below: 2 binders and their reported pKd.
AE12-1-I (antibody, V domains shown, AE12-1 variant; IgG) VH: EVQLVQSGAEVKKPGASVKVSCKASGYTFTSHGISWVRQAPGQGLDWMGWISPYSGNTNYAQKLQGRVTMTTDTSTSTAYMELSSLRSEDTAVYYCARVGSGPYYYMDVWGQGTLVTVSS VL: QSALTQPRSVSGSPGQSVTISCTGTSSSVGDSIYVSWYQQHPGKAPKLMLYDVTKRPSGVPDRFSGSKSGNTASLTISGLQAEDEADYYCISYAGTDTLFGGGTKVTVL : 8.35
AE12-1-K (antibody, V domains shown, AE12-1 variant; IgG) VH: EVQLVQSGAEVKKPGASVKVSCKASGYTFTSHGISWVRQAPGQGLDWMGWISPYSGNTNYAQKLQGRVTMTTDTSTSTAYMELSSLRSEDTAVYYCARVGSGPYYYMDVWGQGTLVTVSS VL: QSALTQPRSVSGSPGQSVTISCTGTSSSVGDSIYVSWYQQHPGKAPKLMLYDVTKRPSGVPDRFSGSKSGNTASLTISGLQAEDEADYYCKSYAGTDTLFGGGTKVTVL : 8.06

Below: the item to evaluate.
The binder identified as AE12-1-F (antibody, V domains shown, AE12-1 variant, Cys of VL CDR-L3 replaced; IgG) VH: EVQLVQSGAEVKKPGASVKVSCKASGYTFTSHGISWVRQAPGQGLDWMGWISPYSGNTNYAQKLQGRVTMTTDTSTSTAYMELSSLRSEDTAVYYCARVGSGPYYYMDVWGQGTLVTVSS VL: QSALTQPRSVSGSPGQSVTISCTGTSSSVGDSIYVSWYQQHPGKAPKLMLYDVTKRPSGVPDRFSGSKSGNTASLTISGLQAEDEADYYCFSYAGTDTLFGGGTKVTVL registered its pKd at 8.85
